All figures here come from patent US20170065702A1.

Target: T1, MARV Angola GPe (Marburg virus, Angola strain, UniProt Q1PD50 19-637)
T1 sequence: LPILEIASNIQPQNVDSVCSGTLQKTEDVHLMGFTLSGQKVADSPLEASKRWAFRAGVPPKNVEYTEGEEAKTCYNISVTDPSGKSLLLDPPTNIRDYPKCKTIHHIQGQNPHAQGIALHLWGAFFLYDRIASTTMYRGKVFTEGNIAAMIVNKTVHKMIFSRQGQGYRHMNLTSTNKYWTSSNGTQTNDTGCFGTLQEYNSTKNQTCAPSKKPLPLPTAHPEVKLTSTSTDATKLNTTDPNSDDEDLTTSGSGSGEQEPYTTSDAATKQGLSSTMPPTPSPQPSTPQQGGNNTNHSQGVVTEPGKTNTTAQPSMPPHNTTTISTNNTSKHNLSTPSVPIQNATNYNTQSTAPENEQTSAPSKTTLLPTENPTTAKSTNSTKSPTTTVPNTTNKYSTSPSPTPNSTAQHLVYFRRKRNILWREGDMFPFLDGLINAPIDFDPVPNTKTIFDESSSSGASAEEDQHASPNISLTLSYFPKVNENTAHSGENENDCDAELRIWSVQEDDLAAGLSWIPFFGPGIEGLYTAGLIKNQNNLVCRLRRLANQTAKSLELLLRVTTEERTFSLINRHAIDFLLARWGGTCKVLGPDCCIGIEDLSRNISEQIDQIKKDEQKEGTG
Assay: ELISA on coated antigen (FIG. 2)
MEASUREMENT_LABEL: binding result

CAN40G1 (antibody, V domains shown) VH: EVQLQQSGPELVKPGASVKISCRTSGYTFTEYTIHWVKQSRGKSLEWIGGINPNHGGTLYNQKFKVKATLTVDKSSSTAYMELRSLTSEDSAVYYCARFTYDYWGQGTTLTVSS VL: DIVLTQSPASLAVSLGQRASISCKASQSVDHDGDSYMNWYQQKPGQPPKLLIYATSNLESGIPARFSGSGSGTDFTLNIHPVEEEDAATYYCQQSYEVPLTFGAGTKLELK = binds
